Entry source: ChEMBL document CHEMBL4130502

biological target: CYP2C19 (Homo sapiens, UniProt P33261); assay: Inhibition of human CYP2C19 assessed as remaining enzyme activity at 10 uM preincubated for 5 mins followed by Vivid CYP substrate addition measured after 20 mins by fluorescence assay relative to control; format: ADME; details: probe Vivid CYP substrate, read-out: Activity
Sequence (P33261 whole entry): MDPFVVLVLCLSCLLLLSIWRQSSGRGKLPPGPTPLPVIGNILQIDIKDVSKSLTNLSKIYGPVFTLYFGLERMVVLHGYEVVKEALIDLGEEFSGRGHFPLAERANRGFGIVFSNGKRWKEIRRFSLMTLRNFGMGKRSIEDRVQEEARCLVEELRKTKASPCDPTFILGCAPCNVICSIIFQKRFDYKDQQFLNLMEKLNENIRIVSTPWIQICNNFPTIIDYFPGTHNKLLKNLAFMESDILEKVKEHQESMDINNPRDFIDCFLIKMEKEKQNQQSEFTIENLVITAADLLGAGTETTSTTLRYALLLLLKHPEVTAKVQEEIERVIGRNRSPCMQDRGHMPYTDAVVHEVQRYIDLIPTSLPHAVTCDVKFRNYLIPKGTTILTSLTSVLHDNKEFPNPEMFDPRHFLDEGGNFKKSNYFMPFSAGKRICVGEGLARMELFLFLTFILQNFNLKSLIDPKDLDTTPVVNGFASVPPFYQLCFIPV
Endpoint: activity at 20 min, 10 µM (%)
# number only, unit % dropped from output

Looking up `CCc1nnc(SCC(=O)N(C)c2ccccc2)c2cc3sc(C)cc3n12` , I found its activity at 20 min, 10 µM recorded as 52.2

Looking up `Cc1nnc(SCC(=O)N(C)c2ccccc2)c2cc3sccc3n12` , I found its activity at 20 min, 10 µM recorded as 28.8

Looking up `CCc1nnc(SCC(=O)N(C)c2ccccc2)c2cc3sccc3n12` , I found its activity at 20 min, 10 µM recorded as 16.8

Looking up `CCc1nnc(SCC(=O)Nc2ccc(OC)c(OC)c2)c2cc3sc(C)cc3n12` , I found its activity at 20 min, 10 µM recorded as 30.9

Looking up `CCc1nnc(SCC(=O)Nc2ccccc2)c2cc3sc(C)cc3n12` , I found its activity at 20 min, 10 µM recorded as 44.1

Looking up `CCN(Cc1ccccc1)C(=O)CSc1nnc(C)n2c1cc1sc(C)cc12` , I found its activity at 20 min, 10 µM recorded as 10.2

Looking up `CCc1nnc(SCC(=O)N2CCN(c3ccccc3)CC2)c2cc3sc(C)cc3n12` , I found its activity at 20 min, 10 µM recorded as 20.3

* * *

Molecular target: CYP1A2 (Homo sapiens, UniProt P05177)
Sequence (P05177 whole entry): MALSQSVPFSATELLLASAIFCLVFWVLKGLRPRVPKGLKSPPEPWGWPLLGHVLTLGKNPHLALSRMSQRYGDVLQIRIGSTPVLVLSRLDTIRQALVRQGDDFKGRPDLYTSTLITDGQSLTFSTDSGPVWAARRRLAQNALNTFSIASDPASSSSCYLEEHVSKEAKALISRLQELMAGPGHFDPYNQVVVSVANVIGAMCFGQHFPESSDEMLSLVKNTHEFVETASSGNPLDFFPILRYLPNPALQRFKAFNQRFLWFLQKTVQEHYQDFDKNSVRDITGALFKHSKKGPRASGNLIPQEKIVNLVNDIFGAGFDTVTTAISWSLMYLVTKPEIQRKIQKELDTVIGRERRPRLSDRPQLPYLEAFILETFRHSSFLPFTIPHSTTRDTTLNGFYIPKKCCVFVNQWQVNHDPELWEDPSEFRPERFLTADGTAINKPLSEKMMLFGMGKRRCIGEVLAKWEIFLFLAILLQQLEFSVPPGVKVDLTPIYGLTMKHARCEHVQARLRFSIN
Test: Inhibition of human CYP1A2 assessed as remaining enzyme activity at 10 uM preincubated for 5 mins followed by Vivid CYP substrate addition measured after 20 mins by fluorescence assay relative to control
Assay type: ADME
Conditions: probe Vivid CYP substrate, read-out: Activity
Please provide measured activity at 20 min, 10 µM for the entries that follow.
# number only, unit % dropped from output

Looking up `CCc1nnc(SCC(=O)N(C)c2ccccc2)c2cc3sccc3n12` , I found its activity at 20 min, 10 µM recorded as 33.7

Looking up `CCc1nnc(SCC(=O)N(C)c2ccccc2)c2cc3sc(C)cc3n12` , I found its activity at 20 min, 10 µM recorded as 50.7

Looking up `CCN(Cc1ccccc1)C(=O)CSc1nnc(C)n2c1cc1sc(C)cc12` , I found its activity at 20 min, 10 µM recorded as 70.9

Looking up `CCc1nnc(SCC(=O)N2CCN(c3ccccc3)CC2)c2cc3sc(C)cc3n12` , I found its activity at 20 min, 10 µM recorded as 40.1

Looking up `CCc1nnc(SCC(=O)Nc2ccc(OC)c(OC)c2)c2cc3sc(C)cc3n12` , I found its activity at 20 min, 10 µM recorded as 65.5

Looking up `Cc1nnc(SCC(=O)N(C)c2ccccc2)c2cc3sccc3n12` , I found its activity at 20 min, 10 µM recorded as 46.8

Looking up `CCc1nnc(SCC(=O)Nc2ccccc2)c2cc3sc(C)cc3n12` , I found its activity at 20 min, 10 µM recorded as 49.2
